- Tested on: HCT116 colon cancer cells
- Protocol Details: HCT116 cell viability and proliferation assay (MTS)
- Format: cell-based
- Cond: Homo sapiens, HCT-116, 72 h, HCT116, 72 hours, read-out: Cell viability (MTS): HCT116 GI50 Day3
- Procedure: HCT116 colon cancer cells were obtained from ATCC (American Type Culture Collection), and maintained in Mc Coy's 5A medium containing 10% FBS, 3 mM glutamine and 1% penicillin/streptomycin. Cells were incubated at 37° C. in a humidified atmosphere containing 5% CO2. […] Cells were incubated with the compounds for 72 hours, and their viability then assayed by the addition of MTS for 2 hours. Absorbance at 492 nm was measured directly from the 96-well culture plates. […]
Quantity Measured: GI50 (µM)

Study these solved cases before continuing.
{"Compound": "O=C(NCc1ccc(CN2CCCC2)cc1)c1ccc2c(Cl)c3c(nc2c1)CCCC3", "Measure Unit": "µM", "GI50": 3.5}
{"Compound": "O=C(NCCN1CCCCCC1)c1ccc2c(Cl)c3c(nc2c1)CCCC3", "Measure Unit": "µM", "GI50": 10}
{"Compound": "CCN(CC)CCCNC(=O)c1ccc2c(Cl)c3c(nc2c1)CCCC3", "Measure Unit": "µM", "GI50": 5}
{"Compound": "O=C(c1ccc2c(Cl)c3c(nc2c1)CCCC3)N1CCCCC1", "Measure Unit": "µM", "GI50": 11.4}
{"Compound": "O=C(NCC(CN1CCCC1)C(O)c1ccccc1)c1ccc2c(Cl)c3c(nc2c1)CCCC3 (centres unmarked)", "Measure Unit": "µM", "GI50": 5.6}

1: O=C(c1ccc2c(Cl)c3c(nc2c1)CCCC3)N1CCCCCC1
2: Cc1cccc(CN2CCC(CNC(=O)c3ccc4c(Cl)c5c(nc4c3)CCCC5)CC2)c1
Field: entry with larger GI50 (options 1 / 2 ). Answer by quoting the chosen item's label. 1
